- TEST TARGET: T1, Rhau55 (N-terminal fragment of RHAU/DHX36) (UniProt Q9H2U1 SEQ:3-55)
- T1 sequence: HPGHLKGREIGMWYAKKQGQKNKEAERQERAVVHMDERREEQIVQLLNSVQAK
- ASSAY PROTOCOL: EMSA; 70 mM KCl, 20 mM phosphate pH 6.8, room temperature
- PARTICULARS: tags: expressed in E. coli; parallel (propeller) G4
MEASURED ENDPOINT: Kd

Please report the recorded Kd for TTGGGTGGGTGGGTGGGT (structured_DNA) [T95_2T] .
989 nM

Origin of measurements: patent US20160115201
